All values here come from paper PMC5616206.

# Assay name: Pharmacokinetics of S807 in rats, single iv or oral dose
# Format: in vivo, Sprague-Dawley rats
# Conditions used: female, Sprague-Dawley, rat, plasma, iv, 1 mg/kg
Reported endpoint: AUC(0-t) (ng·h/mL)
Only the number, expressed in ng·h/mL, is required.

For the compound `CCCC(CCC)NC(=O)c1ccc2c(c1)OCO2` , what AUC(0-t) is on record?
342

----------
# Assay name: Toxicokinetics of S9229 in the 28-day rat study
# Assay type: in vivo, Sprague-Dawley rats
# Conditions used: female, Sprague-Dawley (Crl:CD(SD)), rat, plasma, po, 30 mg/kg, Tmax, Day 1, 30 mg/kg bw, F
Reported endpoint: Tmax (min)
Only the number, expressed in min, is required.

For the compound COC[C@@H](CC(C)C)NC(=O)c1ccc(C)c(C)c1 [S9229] , what Tmax is on record?
30
